Tgt: CDK9/cyclin T1 (Homo sapiens, UniProt P50750)
Sequence (O60563 whole entry): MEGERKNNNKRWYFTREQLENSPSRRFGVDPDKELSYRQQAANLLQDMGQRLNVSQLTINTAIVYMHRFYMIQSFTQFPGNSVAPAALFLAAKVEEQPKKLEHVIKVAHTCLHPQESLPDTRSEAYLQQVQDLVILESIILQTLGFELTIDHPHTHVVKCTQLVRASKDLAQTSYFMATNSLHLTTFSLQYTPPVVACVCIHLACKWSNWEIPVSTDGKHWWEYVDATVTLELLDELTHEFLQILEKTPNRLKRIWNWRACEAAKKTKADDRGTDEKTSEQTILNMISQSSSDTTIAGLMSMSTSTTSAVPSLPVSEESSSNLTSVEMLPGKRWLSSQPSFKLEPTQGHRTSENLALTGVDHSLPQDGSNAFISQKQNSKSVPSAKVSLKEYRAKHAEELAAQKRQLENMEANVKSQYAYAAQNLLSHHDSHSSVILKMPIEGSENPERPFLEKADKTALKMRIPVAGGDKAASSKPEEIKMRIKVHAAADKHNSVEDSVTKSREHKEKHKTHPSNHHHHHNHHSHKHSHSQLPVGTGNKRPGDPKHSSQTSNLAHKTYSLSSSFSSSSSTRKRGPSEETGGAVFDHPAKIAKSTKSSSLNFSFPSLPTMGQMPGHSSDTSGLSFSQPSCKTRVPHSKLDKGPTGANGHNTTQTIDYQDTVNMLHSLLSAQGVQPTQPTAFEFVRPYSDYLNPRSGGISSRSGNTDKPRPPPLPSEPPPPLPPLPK
Sequence (P50750 whole entry): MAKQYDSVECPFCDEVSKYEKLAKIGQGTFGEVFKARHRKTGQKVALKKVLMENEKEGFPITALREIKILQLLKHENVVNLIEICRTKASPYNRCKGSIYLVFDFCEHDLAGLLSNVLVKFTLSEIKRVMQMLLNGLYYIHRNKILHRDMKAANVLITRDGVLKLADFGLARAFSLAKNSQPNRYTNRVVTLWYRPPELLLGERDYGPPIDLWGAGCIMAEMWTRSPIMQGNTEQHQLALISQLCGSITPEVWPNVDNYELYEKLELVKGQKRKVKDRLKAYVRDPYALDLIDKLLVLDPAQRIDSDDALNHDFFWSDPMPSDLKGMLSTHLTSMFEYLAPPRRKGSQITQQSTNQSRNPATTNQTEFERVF
Assay notes: Inhibition of CDK9/CycT1 (unknown origin) using TAMRA-Rbtide and ATP as substrate after 1 hr
Assay type: protein-complex assay
Assay endpoint: pIC50
Bear in mind: pIC50 is minus log10 of a mol/L concentration; give just that figure.

CCOP(=O)(Cc1cccc(Nc2cc(-c3ccccc3OC)ncn2)c1)c1ccccc1 (stereo not drawn) = 6.29

In the following, a different molecule is considered.
# input molecule: CCOP(=O)(Cc1cc(Nc2cc(-c3ccccc3OC)ncn2)ccc1C)OCC ; wanted: its pIC50
5.28
